System: GP2d cells (KRAS G12D)
run.description: Cell-based pERK HTRF assay in GP2d cell (Biological Example 2)
cond: GP2d, GP2d (KRAS G12D) cells, pERK HTRF
pIC50: −log10 of the molar value.
property.name: pIC50

Below: 2 compounds and their reported pIC50.
compound	target.of.assay	pIC50
CCN(c1nc(OC[C@@]23CCCN2C[C@H](F)C3)nc2c(F)c(-c3ccc(F)c4sc(N)c(C#N)c34)c(C(F)(F)F)cc12)[C@H]1CCN(C(=O)C2(F)CC2)C1 (atropisomer, axis not shown)	GP2d cells (KRAS G12D)	> 7.00
CC(=O)N1CCC[C@@H](N(C)c2nc(OC[C@@]34CCCN3C[C@H](F)C4)nc3c(F)c(-c4ccc(F)c5sc(N)c(C#N)c45)c(C(F)(F)F)cc23)C1	GP2d cells (KRAS G12D)	> 7.00

Continue with the next compound.
Qu. Given the entry N#Cc1c(N)sc2c(F)ccc(-c3c(C(F)(F)F)cc4c(N5CC[C@H]5CO)nc(OC[C@@]56CCCN5C[C@H](F)C6)nc4c3F)c12 , report its measured pIC50.
Ans. > 7.00

---

compounds and their reported pIC50
target.of.assay: Avi-KRAS WT (2-169) GTP/RAF1 RBD-3xFLAG (51-131) (Homo sapiens, UniProt P01116)
Construct: Avi-KRAS WT (2-169)
Sequence (P01116 2-169 isoform P01116-2): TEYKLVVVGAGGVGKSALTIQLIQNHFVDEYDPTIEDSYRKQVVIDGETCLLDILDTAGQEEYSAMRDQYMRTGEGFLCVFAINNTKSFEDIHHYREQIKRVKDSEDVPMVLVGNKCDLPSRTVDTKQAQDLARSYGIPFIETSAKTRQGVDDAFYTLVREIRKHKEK
run.description: Raf1-KRAS WT-GTP disruption HTRF assay (Biological Example 3)
Type: binding
cond: KRAS WT, GTP-loaded
Procedure: Biological Example 3: Disrupting RAS-Effector Binding HTRF Assay A protein:protein interaction (PPI) Homogeneous Time Resolved Fluorescence (HTRF) assay was used to determine the effectiveness of compounds in disrupting KRAS protein and effector (RAF1) binding. […] Plates were analyzed on an Envision plate reader using the following setting: Excitation 320 nm, Bandwidth 75 nm; Emission 615 nm, Bandwidth 85 nm; Gain 100%; Flashes 100; Lag 60 μs. […] Data was plotted and analyzed using Prism 8. […]
pIC50: −log10 of the molar value.

Below, 3 compounds whose answers are already recorded.
compound	target.of.assay	pIC50
N#Cc1c(N)sc2c(F)ccc(-c3c(C(F)(F)F)cc4c(N(CCF)[C@H]5CCN(C(=O)[C@@H]6CC6(F)F)C5)nc(OC[C@@]56CCCN5C[C@H](F)C6)nc4c3F)c12 (atropisomer, axis not shown) [Compound 843]	Avi-KRAS WT (2-169) GTP/RAF1 RBD-3xFLAG (51-131) (Homo sapiens, UniProt P01116)	5.00 to 6.00
CCN(c1nc(OC[C@@]23CCCN2C[C@H](F)C3)nc2c(F)c(-c3ccc(F)c4sc(N)c(C#N)c34)c(C(F)(F)F)cc12)[C@H]1CCN(C(=O)C2CN(C(C)=O)C2)C1 (atropisomer, axis not shown) [Compound 638]	Avi-KRAS WT (2-169) GTP/RAF1 RBD-3xFLAG (51-131) (Homo sapiens, UniProt P01116)	6.00 to 7.00
CCN(c1nc(OC[C@@]23CCCN2C[C@H](F)C3)nc2c(F)c(-c3ccc(F)c4sc(N)c(C#N)c34)c(C(F)(F)F)cc12)[C@H]1CCN(C(=O)[C@H]2CCO2)C1 (atropisomer, axis not shown) [Compound 577]	Avi-KRAS WT (2-169) GTP/RAF1 RBD-3xFLAG (51-131) (Homo sapiens, UniProt P01116)	≥ 7.00

Next compound, pIC50 to be filled in.
Qu. Look at this compound and give its reported pIC50. CCN(c1nc(OC[C@@]23CCCN2C[C@H](F)C3)nc2c(F)c(-c3ccc(F)c4sc(N)c(C#N)c34)c(C(F)(F)F)cc12)[C@H]1CCN(C(=O)c2ccc(C)s2)C1 (atropisomer, axis not shown) [Compound 911]
Ans. 5.00 to 6.00

---

Tested on: HPAC cells (KRAS G12D)
run.description: Cell-based pERK HTRF assay in HPAC cells (Biological Example 5)
cond: Homo sapiens, HPAC
pIC50: −log10 of the molar value.
property.name: pIC50

compound	pIC50
CCN(c1nc(OC[C@@]23CCCN2C[C@H](F)C3)nc2c(F)c(-c3ccc(F)c4sc(N)c(C#N)c34)c(C(F)(F)F)cc12)[C@H]1C[C@H](C)N(C(C)=O)C1	6.00 to 7.00
C/C=C/C(=O)N1CC[C@H](N(CC)c2nc(OC[C@@]34CCCN3C[C@H](F)C4)nc3c(F)c(-c4ccc(F)c5sc(N)c(C#N)c45)c(C(F)(F)F)cc23)C1 (atropisomer, axis not shown)	≥ 7.00
CN(Cc1cccnc1N)c1nc(OC[C@@]23CCCN2C[C@H](F)C3)nc2c(F)c(-c3ccc(F)c4sc(N)c(C#N)c34)c(C(F)(F)F)cc12	≥ 7.00
C[C@H]1Cn2nc(C(=O)N(C)C)cc2CN1c1nc(OC[C@@]23CCCN2C[C@H](F)C3)nc2c(F)c(-c3ccc(F)c4sc(N)c(C#N)c34)c(C(F)(F)F)cc12 (atropisomer, axis not shown)	≥ 7.00

Could you now consider this next compound?
Qu. Give the measured pIC50 of CCN(c1nc(OC[C@@]23CCCN2C[C@H](F)C3)nc2c(F)c(-c3ccc(F)c4sc(N)c(C#N)c34)c(C(F)(F)F)cc12)[C@H]1CCN(C(=O)C2CC2)[C@@H]1C (atropisomer, axis not shown) .
Ans. < 6.00

---

# Lookup of reported IC50 keyed by entry
target.of.assay: Avi-KRAS G12V (1-169) GppNHp/RAF1 RBD-3xFLAG (52-151) (Homo sapiens, UniProt P01116, G12V)
Construct: Avi-KRAS G12V (1-169)
Sequence (P01116 1-169 isoform P01116-2 G12V): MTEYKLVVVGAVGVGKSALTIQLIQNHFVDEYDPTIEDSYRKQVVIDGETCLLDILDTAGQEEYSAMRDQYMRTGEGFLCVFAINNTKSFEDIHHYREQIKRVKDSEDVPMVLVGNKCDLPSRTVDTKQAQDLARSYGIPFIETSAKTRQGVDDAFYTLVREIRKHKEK
run.description: Raf1-KRAS G12V-GppNHP disruption HTRF assay (Biological Example 1)
Type: binding
cond: KRAS G12V, GppNHp-loaded; class symbols

compound	data.value
CCN(c1nc(OC[C@@]23CCCN2C[C@H](F)C3)nc2c(F)c(-c3ccc(F)c4sc(N)c(C#N)c34)c(C(F)(F)F)cc12)[C@H]1CC(=O)N2CCC[C@@H]12 (atropisomer, axis not shown; (aS))	< 0.1 µM
CCN(c1nc(OC[C@@]23CCCN2C[C@H](F)C3)nc2c(F)c(-c3ccc(F)c4sc(N)c(C#N)c34)c(C(F)(F)F)cc12)[C@H]1CCN(C(=O)N2C[C@@H](F)[C@@H](F)C2)C1 (atropisomer, axis not shown)	< 0.1 µM
CCN(c1nc(OC[C@@]23CCCN2C[C@H](F)C3)nc2c(F)c(-c3ccc(F)c4sc(N)c(C#N)c34)c(C(F)(F)F)cc12)[C@H]1CCN(C(=O)c2ccns2)C1 (atropisomer, axis not shown)	< 0.1 µM
CCN(c1nc(OC[C@@]23CCCN2C[C@H](F)C3)nc2c(F)c(-c3ccc(F)c4sc(N)c(C#N)c34)c(C(F)(F)F)cc12)[C@H]1CCN(C(=O)[C@@H]2CC23CC3)C1 (atropisomer, axis not shown)	0.1 to 1 µM
CCN(c1nc(OC[C@@]23CCCN2C[C@H](F)C3)nc2c(F)c(-c3ccc(F)c4sc(N)c(C#N)c34)c(C(F)(F)F)cc12)[C@H]1CC(=O)N(CC(F)F)C1 (atropisomer, axis not shown)	0.1 to 1 µM

Qu. What IC50 value was documented for this compound, CCN(c1nc(OC[C@@]23CCCN2C[C@H](F)C3)nc2c(F)c(-c3ccc(F)c4sc(N)c(C#N)c34)c(C(F)(F)F)cc12)[C@H]1CC(=O)N(CCOC)C1 (atropisomer, axis not shown) ?
Ans. < 0.1 µM

Qu. Another compound to look at: CCN(c1nc(OC[C@@]23CCCN2C[C@H](F)C3)nc2c(F)c(-c3ccc(F)c4sc(N)c(C#N)c34)c(C(F)(F)F)cc12)[C@H]1CCN(C(=O)C2COC2)C1 (atropisomer, axis not shown)
Ans. < 0.1 µM

Qu. What about C[C@H]1Cn2nc(C(=O)N(C)C)cc2CN1c1nc(OC[C@@]23CCCN2C[C@H](F)C3)nc2c(F)c(-c3ccc(F)c4sc(N)c(C#N)c34)c(C(F)(F)F)cc12 (atropisomer, axis not shown) ?
Ans. 0.1 to 1 µM

Qu. Same question for CCN(c1nc(OC[C@@]23CCCN2C[C@H](F)C3)nc2c(F)c(-c3ccc(F)c4sc(N)c(C#N)c34)c(C(F)(F)F)cc12)[C@H]1CCN(C(=O)c2cnsc2)C1 (atropisomer, axis not shown) please.
Ans. < 0.1 µM

---

target.of.assay: Avi-KRAS WT (1-169) GppNHp/RAF1 RBD-3xFLAG (52-151) (Homo sapiens, UniProt P01116)
Construct: Avi-KRAS WT (1-169)
Sequence (P01116 1-169 isoform P01116-2): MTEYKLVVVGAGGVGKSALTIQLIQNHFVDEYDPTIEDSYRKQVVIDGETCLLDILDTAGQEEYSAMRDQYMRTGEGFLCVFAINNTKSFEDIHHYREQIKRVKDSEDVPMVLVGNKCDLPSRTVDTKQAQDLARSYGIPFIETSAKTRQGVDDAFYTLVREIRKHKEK
run.description: Raf1-KRAS WT-GppNHP disruption HTRF assay (Biological Example 1)
Format: binding
cond: KRAS WT-GppNHp/RAF1 RBD HTRF
pIC50: −log10 of the molar value.
property.name: pIC50

Qu. I would be grateful if you could share the reported pIC50 for N#Cc1c(N)sc2c(F)ccc(-c3c(C(F)(F)F)cc4c(N5CCN6C(=O)OCC6C5)nc(OCC56CCCN5CC(F)C6)nc4c3F)c12 (centres unmarked) [Compound 428] .
Ans. 6.00 to 7.00

Qu. Now consider CN(c1nc(OC[C@@]23CCCN2C[C@H](F)C3)nc2c(F)c(-c3ccc(F)c4sc(N)c(C#N)c34)c(C(F)(F)F)cc12)[C@@H]1CC(=O)N(Cc2ccccc2)C1 [Compound 452] and answer again.
Ans. 6.00 to 7.00

Qu. What do you have for C[C@@H]1[C@H](N(C)c2nc(OC[C@@]34CCCN3C[C@H](F)C4)nc3c(F)c(-c4ccc(F)c5sc(N)c(C#N)c45)c(Cl)cc23)CCN1C(=O)C1(F)CC1 [Compound 422] ?
Ans. 5.00 to 6.00

Qu. Same lookup for C[C@@H]1Cn2nncc2CN1c1nc(OC[C@@]23CCCN2C[C@H](F)C3)nc2c(F)c(-c3ccc(F)c4sc(N)c(C#N)c34)c(C(F)(F)F)cc12 (atropisomer, axis not shown) [Compound 530] , please.
Ans. 6.00 to 7.00

Qu. Consider next the molecule CCN(c1nc(OC[C@@]23CCCN2C[C@H](F)C3)nc2c(F)c(-c3ccc(F)c4sc(N)c(C#N)c34)c(C(F)(F)F)cc12)[C@H]1C[C@H](C)N(C(=O)COC)C1 (atropisomer, axis not shown) [Compound 538] in the same way.
Ans. > 7.00
